Reported values: pKd for TRF1TRFH (Homo sapiens, UniProt P54274), one per item.
In textbook form, pKd equals minus log to base ten of the concentration in mol/L.

1) O=S(=O)([O-])c1ccc(OCc2cccc(Cl)c2)c2ccccc12.[Na+]: 3.85
2) COc1ccccc1COc1ccc(S(=O)(=O)[O-])c2ccccc12.[Na+]: 3.96
3) COc1cc(COc2ccc(S(=O)(=O)[O-])c3ccccc23)cc(OC)c1.[Na+]: 4.54

Next, consider the following compound.
Find pKd for Cc1cccc(COc2ccc(S(=O)(=O)[O-])c3ccccc23)c1.[Na+] on TRF1TRFH (Homo sapiens, UniProt P54274) and write it down.
Sequence (P54274 47-268): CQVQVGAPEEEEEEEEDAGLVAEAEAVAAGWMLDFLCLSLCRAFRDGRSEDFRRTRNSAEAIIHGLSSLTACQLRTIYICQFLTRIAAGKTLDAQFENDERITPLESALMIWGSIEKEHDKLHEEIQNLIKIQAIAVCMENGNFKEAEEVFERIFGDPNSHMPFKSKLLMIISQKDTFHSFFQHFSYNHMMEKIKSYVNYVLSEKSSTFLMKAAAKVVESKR
4.08
